experiment.summary: Times to onset, minimal and maximal, observed in the indexed observations. [column 'DELAI' in source]
run.conditions: human
Counter-ions that a name gives are not always drawn.
measurement.kind: Hepatotoxicity (time to onset)

| compound | observed |
| --- | --- |
| CO/N=C1\CN(c2nc3c(cc2F)c(=O)c(C(=O)O)cn3C2CC2)CC1CN (configuration not stated) [GEMIFLOXACIN] | 6 days |
| CCC(=O)O[C@](Cc1ccccc1)(c1ccccc1)[C@H](C)CN(C)C [PROPOXYPHENE] | 1 day - 1.5 years |
| COc1cccc(OC)c1C(=O)N[C@@H]1C(=O)N2[C@@H]1SC(C)(C)[C@@H]2C(=O)O [METHICILLIN] | 3 days - 3 weeks |
| CCN(CCCc1ccccc1)CCCc1ccccc1 [ALVERINE] | 4 days - 40 days |
| CC(C)(S)[C@@H](N)C(=O)O [PENICILLAMINE] | 4 days - 2 years |
| Cc1cc(Br)c(O)c2ncccc12 [TILBROQUINOL] | 4 days |
| CCOC(=O)[C@H](CCc1ccccc1)N[C@@H](C)C(=O)N1CCC[C@H]1C(=O)O | 10 days - 3 years |
| CS(=O)(=O)OCCCCOS(C)(=O)=O [BUSULFAN] | 2 days - 6 years |
| COCc1c(C(C)C)nc(C(C)C)c(/C=C/[C@@H](O)C[C@@H](O)CC(=O)O)c1-c1ccc(F)cc1 [CERIVASTATIN] | 3 weeks |
| CCC(COC(=O)c1cc(OC)c(OC)c(OC)c1)(c1ccccc1)N(C)C (configuration not stated) [TRIMEBUTINE] | 2 weeks |
| Nc1nc(F)nc2c1ncn2[C@@H]1O[C@H](CO)[C@@H](O)[C@@H]1O [FLUDARABINE] | 8 months |
| CO[C@H](C(=O)[C@@H](O)[C@@H](C)O)[C@@H]1Cc2cc3cc(O[C@H]4C[C@@H](O[C@H]5C[C@@H](O)[C@H](O)[C@@H](C)O5)[C@H](O)[C@@H](C)O4)c(C)c(O)c3c(O)c2C(=O)[C@H]1O[C@H]1C[C@@H](O[C@H]2C[C@@H](O[C@H]3C[C@](C)(O)[C@H](O)[C@@H](C)O3)[C@@H](O)[C@@H](C)O2)[C@H](O)[C@@H](C)O1 [PLICAMYCIN] | 4 days |
| [H]/N=C(/N)N/C(=N/[H])NCCc1ccccc1 [PHENFORMIN] | 1 week |
| Cc1oncc1C(=O)Nc1ccc(C(F)(F)F)cc1 [LEFLUNOMIDE] | 4 weeks - 20 months |
| CCNc1cccnc1N1CCN(C(=O)c2cc3cc(OC)ccc3[nH]2)CC1 [ATEVIRDINE MESYLATE] | 3 weeks |
| CN(C)CCCN1c2ccccc2Sc2ccccc21 [PROMAZINE] | 2 days - 2 months |
| FC(F)OC(Cl)C(F)(F)F (configuration not stated) [ISOFLURANE] | < 1 day - 3 weeks |

====

run.conditions: human, serum

| molecule | Hepatotoxicity (acute) |
| --- | --- |
| CO/N=C(\C(=O)N[C@@H]1C(=O)N2C(C(=O)[O-])=C(C[N+]3(C)CCCC3)CS[C@H]12)c1csc(N)n1 | 0 |
| NC(CO)C(=O)NNCc1ccc(O)c(O)c1O (stereo not given) [BENSERAZIDE] | 1 |
| COc1ccc(-c2noc(CC(=O)O)c2-c2ccc(OC)cc2)cc1 [MOFEZOLAC] | 0 |
| ClC=C(Cl)Cl [TRICHLOROETHYLENE] | 14 |
| CC(C)(C#N)c1cc(Cn2cncn2)cc(C(C)(C)C#N)c1 [ANASTROZOLE] | 0 |

Where do the numbers come from? From ChEMBL document CHEMBL3137667.
